Entry source: paper PMC9295539

Test system: G. lamblia WB6 (assemblage A)
ASSAY: G. lamblia WB6 cell growth inhibition assay
Format: cell-based
CONDITION_CONTEXT: Giardia duodenalis; assemblage A; read-out: EC50 against G. lamblia strain WB6
QUANTITY_NAME: EC50 (nM)
// return numeric value only (unit: nM, not printed)

> print(dat)
               smiles.record  quantity.name  reported
1  Cc1ncc([N+](=O)[O-])n1CCO           EC50      2330

Prompt: Looking for the measured EC50 of C=CC(=O)N[C@@H]1CN(c2nc(Nc3cn(C)nc3OC)c3ncn(C)c3n2)C[C@H]1F , can you help?
Response: 270
